# MEASUREMENT_PROTOCOL: Cerebral microdialysis study in non-tumor bearing mice
# Assay type: in vivo, CD1 nude mice
# TEST_PARAMETERS: CD1 nude, mouse, brain ECF, po, 100 mg/kg, Brain/tumor ECF AUC0–24h, n=12, brain ECF, 100 mg/kg oral
ASSAY_READOUT: AUC(0-t) (ng·h/mL)
Write the number in ng·h/mL without appending the unit.

Task: Supply recorded AUC(0-t) for CN(C)C(=O)c1cc2cnc(Nc3ccc(N4CCNCC4)cn3)nc2n1C1CCCC1 [ribociclib, Ribociclib] here.
Output: 736
